Tested on: F. solani isolate
testDescription: Antifungal susceptibility testing
Format: cell-based, F. solani complex
conditionSummary: Fusarium solani
Documented MIC across a set of compounds
Numbers only; they are read as µg/mL.

molecule	targetOfAssay	MIC, µg/mL
C[C@@H](c1ncncc1F)[C@](O)(Cn1cncn1)c1ccc(F)cc1F	F. solani isolate	4

Let us examine a further case.
What value of MIC has been recorded for this entry: C[C@@H]1[C@H](O)[C@@H](C)/C=C/C=C/C=C/C=C/C=C/C=C/C=C/[C@H](O[C@@H]2O[C@H](C)[C@@H](O)[C@H](N)[C@@H]2O)C[C@@H]2O[C@](O)(C[C@@H](O)C[C@@H](O)[C@H](O)CC[C@@H](O)C[C@@H](O)CC(=O)O[C@H]1C)C[C@H](O)[C@H]2C(=O)O 8
